Data provenance is patent US20260356856A1.

tested.target: KRas-mediated phosphorylation of ERK in A549 cells (Homo sapiens, UniProt P01116, G12S)
Construct: pERK HTRF read-out
Sequence (P01116 1-188 isoform P01116-2 G12S): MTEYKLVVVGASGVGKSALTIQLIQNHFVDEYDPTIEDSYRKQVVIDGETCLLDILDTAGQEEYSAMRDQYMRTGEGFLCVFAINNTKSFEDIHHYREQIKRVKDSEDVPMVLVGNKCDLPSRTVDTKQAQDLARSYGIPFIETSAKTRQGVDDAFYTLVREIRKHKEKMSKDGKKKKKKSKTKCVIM
assay.remarks: Inhibition of KRas-mediated phosphorylation of ERK (HTRF), A549 cells
Assay type: cell-based
condition: HTRF pERK, 3 h incubation
measurement.label: IC50 (nM)

Study these solved cases before continuing.
# molecule, tested.target, measurement.label, obs.value
records = [
    ("N#Cc1c(N)sc2c(F)ccc(-c3c(Cl)cc4c(N5CCN(S(=O)(=O)n6cncn6)CC5)nc(OC[C@@]56CCCN5C[C@H](F)C6)nc4c3F)c12", "KRas-mediated phosphorylation of ERK in A549 cells (Homo sapiens, UniProt P01116, G12S)", "IC50", 2830),
    ("N#Cc1c(N)sc2c(F)ccc(-c3c(Cl)cc4c(N5CCC(C(=O)Oc6ccccc6Cl)CC5)nc(OC[C@@]56CCCN5C[C@H](F)C6)nc4c3F)c12", "KRas-mediated phosphorylation of ERK in A549 cells (Homo sapiens, UniProt P01116, G12S)", "IC50", 169),
    ("CN(C)c1ccn(C(=O)C2CCCN(c3nc(OC[C@@]45CCCN4C[C@H](F)C5)nc4c(F)c(-c5ccc(F)c6sc(N)c(C#N)c56)c(Cl)cc34)CC2)n1 (stereo partly drawn)", "KRas-mediated phosphorylation of ERK in A549 cells (Homo sapiens, UniProt P01116, G12S)", "IC50", 39),
]

a. Cc1ccn(C(=O)CCCCNc2nc(OC[C@@]34CCCN3C[C@H](F)C4)nc3c(F)c(-c4ccc(F)c5sc(N)c(C#N)c45)c(Cl)cc23)n1
b. Cc1ccn(C(=O)C2CCCN(c3nc(OC[C@@]45CCCN4C[C@H](F)C5)nc4c(F)c(-c5nc(N)ccc5C)c(Cl)cc34)CC2)n1 (stereo partly drawn)
c. N#Cc1c(N)sc2c(F)ccc(-c3c(Cl)cc4c(N5CCC(C(=O)N6C7CCC6COC7)CC5)nc(OC[C@@]56CCCN5C[C@H](F)C6)nc4c3F)c12
d. CON(C(C)=O)C(=O)CCCN(C)c1nc(OC[C@@]23CCCN2C[C@H](F)C3)nc2c(F)c(-c3ccc(F)c4sc(N)c(C#N)c34)c(Cl)cc12
stdin: Ascending sort, IC50. Return value: ordered labels per request.
stdout: d, a, c, b
(d: 3 nM, a: 381 nM, c: 677 nM, b: 1970 nM)

P. CCc1c(F)ccc2cc(O)cc(-c3ncc4c(N5CCN(C(=O)n6ccnc6)CC5)nc(OC[C@@]56CCCN5C[C@H](F)C6)nc4c3F)c12
Q. CCc1c(F)ccc2cc(O)cc(-c3ncc4c(N5CCC(C(=O)Oc6ccccc6)CC5)nc(OC[C@@]56CCCN5C[C@H](F)C6)nc4c3F)c12
R. CC(=O)N(C)C(=O)C(C)CCN(C)c1nc(OC[C@@]23CCCN2C[C@H](F)C3)nc2c(F)c(-c3ccc(F)c4sc(N)c(C#N)c34)c(Cl)cc12 (stereo partly drawn)
stdin: Falling order of IC50, please. Give me the labels in the order the question wants.
stdout: Q, P, R
